experiment: Example 1: multiple-dose randomized 3-way crossover PK study of two IV tramadol regimens vs 100 mg oral q6h; details: human, plasma, iv, 50 mg, plasma concentration, Mean, 50 mg IV Dose (h 0, 2, 4, then q4h to h 44); Time 5.00 hr
Where a name gives a salt, the structure may show the parent alone.
Outcome measure: concentration at 5 h (ng/mL)
Please give a number only; it is taken to be in ng/mL.

Problem: Return reported concentration at 5 h; argument: COc1cccc([C@]2(O)CCCC[C@H]2CN(C)C)c1 (racemic) [Tramadol, hydrochloride]
Result: 527

###

assay: Example 1: multiple-dose randomized 3-way crossover PK study of two IV tramadol regimens vs 100 mg oral q6h; settings: human, plasma, po, 100 mg, AUC0-24, 100 mg oral q6h to h 42, mean
Counter-ions that a name gives are not always drawn.
Outcome measure: AUC(0-t) (ng·h/mL)
A number alone suffices; assume ng·h/mL.

Problem: Record request: AUC(0-t) value, item COc1cccc([C@]2(O)CCCC[C@H]2CN(C)C)c1 (racemic) [Tramadol, hydrochloride]
Result: 7490

###

experiment: Example 1: multiple-dose randomized 3-way crossover PK study of two IV tramadol regimens vs 100 mg oral q6h; conditions: human, plasma, iv, 50 mg, plasma concentration, Mean, 50 mg IV Dose (h 0, 2, 4, then q4h to h 44); Time 0.750 hr
Structures can show the parent of a compound that is named as a salt.
Outcome measure: concentration at 0.75 h (ng/mL)
# output: bare number, implied unit ng/mL

Problem: Look at this compound and give its reported concentration at 0.75 h. COc1cccc([C@]2(O)CCCC[C@H]2CN(C)C)c1 (racemic) [Tramadol, hydrochloride]
Result: 243

###

assay: Example 1: multiple-dose randomized 3-way crossover PK study of two IV tramadol regimens vs 100 mg oral q6h; conditions: human, plasma, iv, 75 mg, C3, 75 mg IV regimen (h 0, 3, 6, then q6h to h 42); plasma, mean
Structures can show the parent of a compound that is named as a salt.
Outcome measure: concentration at 3 h (ng/mL)
Kindly answer with a numeric value in ng/mL, unit omitted.

Problem: concentration at 3 h for COc1cccc([C@]2(O)CCCC[C@H]2CN(C)C)c1 (racemic) [Tramadol, hydrochloride] ?
Result: 237

###

assay: Example 1: multiple-dose randomized 3-way crossover PK study of two IV tramadol regimens vs 100 mg oral q6h; settings: human, plasma, iv, 50 mg, plasma concentration, Mean, 50 mg IV Dose (h 0, 2, 4, then q4h to h 44); Time 6.00 hr
Counter-ions that a name gives are not always drawn.
Outcome measure: concentration at 6 h (ng/mL)
Numbers only here, please. The scale is ng/mL.

Problem: Need concentration at 6 h, item COc1cccc([C@]2(O)CCCC[C@H]2CN(C)C)c1 (racemic) [Tramadol, hydrochloride]
Result: 433

###

test: Example 1: multiple-dose randomized 3-way crossover PK study of two IV tramadol regimens vs 100 mg oral q6h; conditions: human, plasma, iv, 50 mg, plasma concentration, Mean, 50 mg IV Dose (h 0, 2, 4, then q4h to h 44); Time […]
Structures can show the parent of a compound that is named as a salt.
Outcome measure: concentration at 24 h (µg/mL)
Entry rule: numbers only, all in µg/mL.

Problem: // returns reported concentration at 24 h for input COc1cccc([C@]2(O)CCCC[C@H]2CN(C)C)c1 (racemic) [Tramadol, hydrochloride]
Result: 0.413
